- MEASUREMENT_TARGET: UniProt P10275
- Sequence (P10275 whole entry): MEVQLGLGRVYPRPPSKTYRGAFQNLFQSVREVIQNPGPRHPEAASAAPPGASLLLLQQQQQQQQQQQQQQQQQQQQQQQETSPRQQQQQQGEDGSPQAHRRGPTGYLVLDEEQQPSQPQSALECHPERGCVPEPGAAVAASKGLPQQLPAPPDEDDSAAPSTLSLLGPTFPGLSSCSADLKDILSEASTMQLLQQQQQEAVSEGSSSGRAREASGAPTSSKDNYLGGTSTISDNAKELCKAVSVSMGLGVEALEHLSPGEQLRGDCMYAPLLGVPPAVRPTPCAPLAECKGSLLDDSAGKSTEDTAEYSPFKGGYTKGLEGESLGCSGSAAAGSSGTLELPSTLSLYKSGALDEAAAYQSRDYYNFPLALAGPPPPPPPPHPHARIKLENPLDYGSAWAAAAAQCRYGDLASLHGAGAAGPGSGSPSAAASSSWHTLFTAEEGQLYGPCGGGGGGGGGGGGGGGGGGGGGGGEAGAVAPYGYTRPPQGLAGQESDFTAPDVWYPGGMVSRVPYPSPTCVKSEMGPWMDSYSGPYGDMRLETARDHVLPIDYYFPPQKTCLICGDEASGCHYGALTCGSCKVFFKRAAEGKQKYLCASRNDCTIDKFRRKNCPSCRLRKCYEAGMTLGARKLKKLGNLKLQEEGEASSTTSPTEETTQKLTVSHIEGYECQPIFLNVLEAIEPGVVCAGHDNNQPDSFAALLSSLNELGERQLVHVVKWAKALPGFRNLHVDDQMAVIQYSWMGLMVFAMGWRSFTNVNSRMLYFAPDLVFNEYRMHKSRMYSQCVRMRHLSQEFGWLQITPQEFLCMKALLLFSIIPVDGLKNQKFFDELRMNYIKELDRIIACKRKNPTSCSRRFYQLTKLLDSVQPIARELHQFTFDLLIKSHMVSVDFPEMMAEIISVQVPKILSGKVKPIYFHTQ
pIC50: −log10 of the molar value.
// pIC50 lookup, one value per entry

C[C@]12CCC3C(CC=C4C[C@@H](O)CC[C@@]43CC=O)C1CC[C@@H]2O (stereo partly drawn): < 5.30
C[C@]12CCC3C(CC=C4C[C@@H](O)CC[C@@]43CO)C1CC[C@@H]2O (stereo partly drawn): < 5.30

// switching to the query compound
Tell me its pIC50 given C[C@]12CCC3C(CC=C4C[C@@H](O)CC[C@@]43C=O)C1CC[C@@H]2O (stereo partly drawn) as the entry. < 5.30
